Entry source: patent US7407939

tested_system: protein kinase B, P31749
Sequence (P31749 whole entry): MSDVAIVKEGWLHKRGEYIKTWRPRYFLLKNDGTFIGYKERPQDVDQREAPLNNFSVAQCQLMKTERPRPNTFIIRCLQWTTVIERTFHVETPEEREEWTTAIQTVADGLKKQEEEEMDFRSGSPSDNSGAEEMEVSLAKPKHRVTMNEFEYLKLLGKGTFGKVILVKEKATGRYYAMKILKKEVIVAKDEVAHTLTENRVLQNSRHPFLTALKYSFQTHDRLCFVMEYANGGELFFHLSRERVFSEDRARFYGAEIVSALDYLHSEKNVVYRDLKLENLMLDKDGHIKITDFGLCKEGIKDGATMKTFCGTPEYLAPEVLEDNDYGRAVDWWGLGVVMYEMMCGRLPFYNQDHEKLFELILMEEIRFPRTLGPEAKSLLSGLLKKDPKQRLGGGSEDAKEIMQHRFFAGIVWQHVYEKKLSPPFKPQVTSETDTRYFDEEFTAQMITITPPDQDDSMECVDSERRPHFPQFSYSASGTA
method_notes: cell-based or functional assay
Where no end group is shown, it is not given here. [ ]: non-standard residue; d: D form. hLeu = CC(C)CC[C@H](N)C(=O)O; GltNH2 = not defined here; Nva = CCC[C@H](N)C(=O)O; Abu = CC[C@H](N)C(=O)O; Dap = NC[C@H](N)C(=O)O; Ph2 = not defined here; GlyNH2 = aminoglycine
Each entry below carries its reported % Inhibition PKB II.
result_type: % Inhibition PKB II (%)

binder | result_type | data_value
RPR[Nva][GlyNH2][Dap][Ph2] (reading uncertain) [60006-11B] | % Inhibition PKB II | 44
RPR[Nva][GlyNH2][GltNH2][hLeu] (reading uncertain) [60006-16A] | % Inhibition PKB II | 42
RPRTS[GlyNH2]F [60005-5] | % Inhibition PKB II | 93
RPR[Nva][GlyNH2][Abu][hLeu] [60006-7B] | % Inhibition PKB II | 47
RPR[Nva][GlyNH2]A[hLeu] [60006-5A] | % Inhibition PKB II | 43
